Origin of measurements: paper PMC9197583

TARGET DESC: NrtA (Synechocystis sp. PCC 6803, UniProt P73452)
Sequence (P73452 30-446): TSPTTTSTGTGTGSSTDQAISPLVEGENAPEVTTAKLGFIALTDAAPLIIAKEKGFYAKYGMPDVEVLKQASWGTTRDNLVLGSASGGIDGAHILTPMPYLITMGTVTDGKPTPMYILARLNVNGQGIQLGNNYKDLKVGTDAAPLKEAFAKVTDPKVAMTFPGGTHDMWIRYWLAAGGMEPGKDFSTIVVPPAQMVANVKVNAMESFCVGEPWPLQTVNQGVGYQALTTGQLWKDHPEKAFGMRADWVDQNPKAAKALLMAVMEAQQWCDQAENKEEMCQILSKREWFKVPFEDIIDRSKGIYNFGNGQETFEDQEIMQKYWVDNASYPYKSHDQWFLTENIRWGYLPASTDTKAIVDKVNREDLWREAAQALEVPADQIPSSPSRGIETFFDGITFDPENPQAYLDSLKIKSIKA
Recorded measurements of pKd, one per entry
Friendly reminder that pKd comes from taking -log10 of the concentration in mol/L.

{"columns": ["COMPOUND", "pKd"],
 "data": [
  ["O=NO", 6.64]
]}

Next compound, please.
Tell me reported pKd for O=[N+]([O-])O [nitrate] , tested with NrtA (Synechocystis sp. PCC 6803, UniProt P73452).
7.24
